Values of IC50 reported for Acetylcholinesterase (Electrophorus electricus, UniProt O42275) appear below.
Answers are plain numbers, in nM.

Recorded IC50, per entry:
O=c1cc(-c2ccc(Cl)cc2)oc2cc(OCCCN3CCN(CCCNc4c5c(nc6ccccc46)CCCC5)CC3)ccc12 :: 40.1
O=c1ccoc2cc(OCCCN3CCN(CCCNc4c5c(nc6ccccc46)CCCC5)CC3)cc(O)c12 :: 15.4
CN(C)c1ccc(-c2cc(=O)c3ccc(OCCCN4CCN(CCCNc5c6c(nc7ccccc57)CCCC6)CC4)cc3o2)cc1 :: 230
O=c1cc(-c2ccccc2)oc2cc(OCCCCCN3CCN(CCCNc4c5c(nc6ccccc46)CCCC5)CC3)ccc12 :: 594
O=c1cc(-c2ccccc2)oc2cc(OCCCN3CCN(CCCNc4c5c(nc6ccccc46)CCCC5)CC3)cc(O)c12 :: 133

Challenge: Write down the reported IC50 of Nc1ccc(-c2cc(=O)c3ccc(OCCCN4CCN(CCCNc5c6c(nc7ccccc57)CCCC6)CC4)cc3o2)cc1 , test system: Acetylcholinesterase (Electrophorus electricus, UniProt O42275).
Sequence (O42275 whole entry): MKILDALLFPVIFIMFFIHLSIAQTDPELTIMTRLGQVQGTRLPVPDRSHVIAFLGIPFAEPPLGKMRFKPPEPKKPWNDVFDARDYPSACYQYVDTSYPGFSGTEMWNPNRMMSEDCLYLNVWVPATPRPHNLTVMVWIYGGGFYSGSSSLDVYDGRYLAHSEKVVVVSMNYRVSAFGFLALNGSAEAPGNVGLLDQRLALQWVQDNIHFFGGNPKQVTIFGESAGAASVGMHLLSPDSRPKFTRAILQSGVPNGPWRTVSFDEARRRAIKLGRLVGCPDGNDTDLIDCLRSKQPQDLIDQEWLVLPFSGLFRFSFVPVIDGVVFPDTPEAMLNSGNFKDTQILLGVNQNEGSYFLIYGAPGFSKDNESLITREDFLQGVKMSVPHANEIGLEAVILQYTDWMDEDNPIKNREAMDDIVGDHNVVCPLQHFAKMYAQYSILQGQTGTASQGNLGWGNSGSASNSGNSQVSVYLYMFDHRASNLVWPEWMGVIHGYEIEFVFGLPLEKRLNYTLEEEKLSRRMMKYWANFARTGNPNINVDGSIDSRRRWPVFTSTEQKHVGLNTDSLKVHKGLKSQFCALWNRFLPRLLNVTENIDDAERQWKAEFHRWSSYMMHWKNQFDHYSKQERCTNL
Response given: 336

Entry source: ChEMBL document CHEMBL2434826
